# EXPERIMENTAL_SYSTEM: T1, FcRn-p3 fusion protein (human, UniProt P55899 24-297; P61769 21-119)
# T1 construct: baculovirus expressed; coated on ELISA wells; not shown: amino terminal part of bacteriophage p3 protein and CVDE protein
# T1 sequence (P55899 24-297, chain 1 of 2): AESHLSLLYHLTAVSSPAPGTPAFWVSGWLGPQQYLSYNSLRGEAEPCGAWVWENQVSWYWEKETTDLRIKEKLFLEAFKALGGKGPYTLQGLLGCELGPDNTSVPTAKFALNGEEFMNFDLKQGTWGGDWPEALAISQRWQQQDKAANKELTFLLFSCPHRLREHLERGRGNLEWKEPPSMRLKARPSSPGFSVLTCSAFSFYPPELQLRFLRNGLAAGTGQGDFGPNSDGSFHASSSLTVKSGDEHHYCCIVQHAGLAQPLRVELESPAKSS
# T1 sequence (P61769 21-119, chain 2 of 2): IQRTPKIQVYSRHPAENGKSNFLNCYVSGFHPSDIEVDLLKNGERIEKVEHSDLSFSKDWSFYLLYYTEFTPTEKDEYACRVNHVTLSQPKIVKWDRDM
# ASSAY_TEXT: phage ELISA pH6 (est.)
READOUT: Ratio/FWT
Reply with a number, then the unit it belongs to.

Check out these entries, answers already filled in.
BINDER | Ratio/FWT
C7A_43 (other, EU numbering) CPPCPAPELLGGPSVFLFPPKPKDTLMISRTPEVTCVVEDVSHEDPEVKFNWYVDGVEVHNAKTKPREEQYNSTYRVVSVLPVLHQDWLNGKEYKCKVSNKALPAPIEKTISKAKGQPREPQVYTLPPSRDELTKNQVSLTCLVKGFYPSDIVVEWESNGQPENNYKTTPSVLDSDGSFFLYSKLTVDKSRWQQGNVFSCSVMHEALHSHYTQKSLSLSPGK | 11.5 fold
C4A_41 (other, EU numbering) CPPCPAPELLGGPSVFLFPPKPKDTLMISRTPEVTCVVVDVSHEDPEVKFNWYVDGVEVHNAKTKPREEQYNSTYRVVSVLTVLHQDWLDGKEYKCKVSNKALPVPIEKTISKAKGQPREPQVYTLPPSRDELTKNEVSLTCLVKGFYPSDIAVEWESNGQPENNYKTTPPVLDSDGSFFLYSKLTVDKSRWQQGNVFSCSVMHEALHYHYTQKSLSLSPGK | 10.8 fold

Documented Ratio/FWT of T6A_93 (other, EU numbering) CPPCPAPELLGGPSVFLFPPKPKDTLMISRTPEVTCVVVDVSHEDPEVKFNWYVDGVEVHNAKTKPREEQYNSKYRVVSVLTVLHRDWLDGKEYKCKVSNKALPAPIEKTISKAKGQPREPQVYTLPPSRDELTKNQVSLTCLVKGFYPSDIAVEWESNGQPENNYKTTPPVLDSDGSFFLYSKLTVDKSRWQQGNVFSCSVMHEALHYHYTQKSLSLSPGK : 3.5 fold

Reference source for all entries: patent USRE46585
